Listing of Ki toward UniProt P32245, each taken from a published source.
Sequence (P32245 whole entry): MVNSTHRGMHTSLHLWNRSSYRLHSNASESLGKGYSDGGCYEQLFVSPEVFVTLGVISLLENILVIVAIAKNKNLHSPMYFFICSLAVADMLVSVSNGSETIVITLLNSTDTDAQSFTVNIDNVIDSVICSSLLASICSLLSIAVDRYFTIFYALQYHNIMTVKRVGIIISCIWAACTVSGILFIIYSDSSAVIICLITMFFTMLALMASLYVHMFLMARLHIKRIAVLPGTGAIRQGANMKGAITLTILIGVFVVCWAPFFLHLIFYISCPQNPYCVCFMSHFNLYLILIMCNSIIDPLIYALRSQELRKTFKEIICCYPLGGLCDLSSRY
Metric name: Ki (nM)

[
  {
    "Molecule": "CC(=O)NCC(c1ccccc1F)N1CCN(C)CC1 (centres undefined)",
    "Ki / nM": 467
  }
]

P: N=C(N)NCCC[C@H](NC(=O)[C@H](Cc1ccccc1)NC(=O)[C@H](Cc1cnc[nH]1)NS(=O)(=O)c1ccc(Cl)cc1)C(=O)N[C@@H](Cc1c[nH]c2ccccc12)C(N)=O
Q: N=C(N)NCCC[C@@H]1NC(=O)[C@@H](Cc2ccccc2)NC(=O)[C@H](Cc2c[nH]cn2)NC(=O)CCC(=O)NCCCC[C@@H](C(N)=O)NC(=O)[C@H](Cc2c[nH]c3ccccc23)NC1=O
R: COc1ccc(Br)cc1CCc1c(F)cccc1C(=O)/N=C(\N)NCC(C)C
S: CC(C)C[C@H](N)c1cc(C(F)(F)F)ccc1N1CCN(C(=O)COc2ccc3ccccc3c2)CC1
T: N=C(N)NCCCNC(=O)[C@H](CCCN=C(N)N)NCc1ccc2ccccc2c1
Q: Returns the items ordered by Ki, from maximum to minimum. // rank by listing labels in the order requested
A: T, S, R, P, Q

1: COCCN(C)Cc1ccccc1N1CCN(C(=O)[C@@H](Cc2ccc(Cl)cc2)NC(=O)[C@H]2Cc3ccccc3CN2)CC1
2: CC(C)N1C[C@@H](C(=O)N2CCN(c3ccccc3Cn3cccn3)CC2)[C@H](c2ccc(Cl)cc2)C1
3: CC(N[C@H]1CCCCC1N)c1ccccc1N1CCN(C(=O)[C@@H](Cc2ccc(Cl)cc2)NC(=O)[C@H]2Cc3ccccc3CN2)CC1 (some centres undefined)
Q: List the 3 entries from lowest Ki to highest Ki value. // rank by listing labels in the order requested
A: 3, 1, 2
(3: 13 nM, 1: 49 nM, 2: 490 nM)

a: CC(C)[C@H](NC(=O)CCN(C)C)c1cccc(F)c1N1CCN(C(=O)[C@@H]2CN(C(C)C)C[C@H]2c2ccc(C(F)(F)F)c(F)c2)CC1
b: CCN[C@H](c1cc(C(F)(F)F)ccc1N1CCN(C(=O)CCc2ccc(Cl)cc2Cl)CC1)C(C)CC (some centres undefined)
Q: For this pair, a and b , which shows a numerically higher Ki? Pick one; state its label.
A: b
